Data credit: patent US9422331B2

Field: IC50. Provide a value for each of the molecules that follow.
# STUDY_SYSTEM: BIR3 domain of XIAP (Homo sapiens (Human), UniProt P98170)
# Sequence (P98170 241-356): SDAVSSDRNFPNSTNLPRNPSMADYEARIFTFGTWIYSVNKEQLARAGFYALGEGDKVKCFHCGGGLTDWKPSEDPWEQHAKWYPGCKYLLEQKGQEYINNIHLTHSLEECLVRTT
# METHOD_NOTES: TR-FRET assay for BIR3: inhibition of binding of XIAP BIR3 domain to Peptide A (SMAC-derived peptide)
Structures can show the parent of a compound that is named as a salt.

Prompt line: Enter IC50 (test system BIR3 domain of XIAP (Homo sapiens (Human), UniProt P98170)) for CN[C@@H](C)C(=O)N[C@@H]1C(=O)N(Cc2noc3cc(Br)ccc23)c2ccccc2N(C(=O)CS(C)(=O)=O)[C@H]1C [Example 41, 2,2,2-trifluoroacetate]
Response line: > 54.8 µM

Prompt line: Under BIR3 domain of XIAP (Homo sapiens (Human), UniProt P98170), report IC50 for CN[C@@H](C)C(=O)N[C@@H]1C(=O)N(Cc2c(C)cnc3ccccc23)c2ccccc2N(C(C)=O)[C@H]1C [Example 20, dihydrochloride]
Response line: > 54.8 µM

Prompt line: Provide the reported IC50 (system: BIR3 domain of XIAP (Homo sapiens (Human), UniProt P98170)) for CN[C@@H](C)C(=O)N[C@@H]1C(=O)N(Cc2nn(-c3ccccc3C#N)c3ccccc23)c2ccc(C#N)cc2N(C(=O)CS(C)(=O)=O)[C@H]1C [Example 53, 2,2,2-trifluoroacetate]
Response line: > 54.8 µM

###

# STUDY_SYSTEM: BIR3 domain of XIAP (Homo sapiens (Human), UniProt P98170)
# METHOD_NOTES: TR-FRET assay for BIR3: inhibition of binding of XIAP BIR3 domain to Peptide A (SMAC-derived peptide)
# PARTICULARS: 6x Histidine-tagged BIR3 domain (amino acids 241-356 of XIAP), 10 nM; 20 nM peptide AVPIAQKSEK-(ε-biotin)-OH; TR-FRET
pIC50: −log10 of the molar value. Where a name gives a salt, the structure may show the parent alone.
For each of the compounds below, state its pIC50.

Prompt line: Item CN[C@@H](C)C(=O)N[C@@H]1C(=O)N(Cc2nn(-c3ccccc3C#N)c3ccccc23)c2ccccc2N(C(C)=O)[C@H]1C [Example 19] : provide pIC50
Response line: < 4.26

Prompt line: Provide measured pIC50 value, entry: CN[C@@H](C)C(=O)N[C@@H]1C(=O)N(Cc2nn(-c3ccccc3C#N)c3ccccc23)c2ccccc2N(C(=O)c2ccc(C(C)=O)cc2)[C@H]1C [Example 3, hydrochloride]
Response line: < 4.26

###

# STUDY_SYSTEM: BIR2 domain of XIAP (Homo sapiens (Human), UniProt P98170, C202A/C213G)
# Sequence (P98170 124-240 C202A/C213G): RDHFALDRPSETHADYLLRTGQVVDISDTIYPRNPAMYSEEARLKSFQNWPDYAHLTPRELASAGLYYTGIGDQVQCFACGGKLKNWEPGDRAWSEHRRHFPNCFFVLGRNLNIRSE
# METHOD_NOTES: TR-FRET assay for BIR2: inhibition of binding of XIAP BIR2 domain to Peptide A (SMAC-derived peptide)
# PARTICULARS: 6x Histidine-tagged BIR2 domain (amino acids 124-240 of XIAP), 10 nM; 20 nM peptide AVPIAQKSEK-(ε-biotin)-OH; TR-FRET
Counter-ions that a name gives are not always drawn.
ENDPOINT_LABEL: pIC50
To interpret pIC50, take it as minus log10 of a concentration measured in moles per litre.

Prompt line: Using known records, supply pIC50 for CN[C@@H](C)C(=O)N[C@@H]1C(=O)N(Cc2nn(-c3ccccc3C#N)c3ccccc23)c2ccccc2N(C(=O)c2ccc(C(C)=O)cc2)[C@H]1C [Example 3, hydrochloride]
Response line: 7.92

Prompt line: Please list pIC50 recorded for the molecule "CN[C@@H](C)C(=O)N[C@@H]1C(=O)N(Cc2nn(-c3ccccc3C#N)c3ccccc23)c2ccccc2N(C(C)=O)[C@H]1C"
Response line: 7.36
